- TESTED TARGET: PD-L1 (antigen of the kinetic measurements) (human, UniProt Q9NZQ7)
- Sequence (Q9NZQ7 19-238 limits assumed): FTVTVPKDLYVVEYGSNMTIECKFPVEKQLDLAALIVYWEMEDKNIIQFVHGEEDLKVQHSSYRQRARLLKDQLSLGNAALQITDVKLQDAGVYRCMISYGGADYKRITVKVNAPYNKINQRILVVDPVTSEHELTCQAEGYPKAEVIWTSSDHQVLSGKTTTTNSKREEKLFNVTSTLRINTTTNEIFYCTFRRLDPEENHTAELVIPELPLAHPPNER
- MEASUREMENT PROTOCOL: kinetic measurements for aPDL1 antibodies; instrument and antigen format not stated
MEASURED PARAMETER: pKd
Scale for pKd: -log10 of concentration given in mol/L; no unit attached.

Known results for binders:
| BINDER | MEASURED PARAMETER | OBS VALUE |
| --- | --- | --- |
| 1C1 (antibody, V domains shown, anti-PD-L1 clone; also called Ab 1C1) VH: QVQLVQSGAEVKKPGASVKVSCKASGYTFTSYGISWVRQAPGQGLEWMGWTSPHNGLTAFAQILEGRVTMTTDTSTNTAYMELRNLTFDDTAVYFCAKVHPVFSYALDVWGQGTLVTVSS VL: NFMLTQPHSVSESPGKTVTISCTRSSGSIASNYVQWYQQRPGSSPTTVIYEDNQRPSGVPDRFSGSIDTSSNSASLTISGLKTKDEADYYCQSYDGITVIFGGGTKLTVL | pKd | 8.91 |
| 1H2 (antibody, V domains shown, anti-PD-L1 clone; also called Ab 1H2) VH: QVQLVQSGGGLVKPGGSLRLSCAASGFTFSSYSMNWVRQAPGKGLVWISRIISDGSATTYADSVKGRFTISRDNAKNTLYLQMNSLRAEDTGVYYCARDRSEGGFDPWGQGTLVTVSS VL: SSELTQDPAVSVALGQTVRITCQGDSLRSYYASWYQQKPGQAPVLVIYGKNNRPSGIPDRFSGSTSGNTASLTITGAQAEDEADYYCNSRDISDNQWQWIFGGGTKLAVL | pKd | 8.80 |
| 1A3 (antibody, V domains shown, anti-PD-L1 clone; also called Ab 1A3) VH: EVQLVQSGAEVKKPGASVKVSCKASGYTLSSHGITWVRQAPGQGLEWMGWISAHNGHASNAQKVEDRVTMTTDTSTNTAYMELRSLTPDDTAVYYCARVHAALYYGMDVWGQGTLVTVSS VL: LPVLTQPPSVSVAPGQTARITCGGNNIGSKSVHWYQQKPGQAPVLVVYDDSDRPSGIPERFSGSNSGNTATLTISRVEAGDEADYYCQVWDSSSDHWVFGGGTKLTVL | pKd | 6.06 |
| 1H5 (antibody, V domains shown, anti-PD-L1 clone; also called Ab 1H5) VH: QVQLVQSGAEVKKPGSSVKVSCKASGGTFSRYALTWVRQAPGQGLEWMGGIIPIFGRANYAQKFQGRVTITADKSTSTAYMELGSLTSDDTAVYYCAEEGAFNSLAIWGQGTMVTVSS VL: NFMLTQPHSVSGSPGETVTISCTRSSGSIASHFVQWYQQRPGSSPTTVIFGDDQRPSGVPDRISGSIDTSSNSASLSISGLKTEDEADYYCQSYDSSNHVVFGGGTKLTVL | pKd | 9.54 |

INPUT: For 1A2 (antibody, V domains shown, anti-PD-L1 clone; also called Ab 1A2) VH: QVQLVQSGGEVKKPGASVKVSCKASGYTLSSHGITWVRQAPGQGLEWMGWISAHNGHASNAQKVEDRVTMTTDTSTNTAYMELRSLTADDTAVYYCARVHAALYYGMDVWGQGTTVTVSS VL: QSVLTQPPSVSVAPGQTARITCGGNNIGSKGVHWYQQKPGQAPVLVVYDDSDRPSGIPERFSGSNSGNTATLTISRVEAGDEADYYCQVWDSSSDHWVFGGGTKLTVL , what is its reported pKd?
OUTPUT: 9.17
